- System: PPARg:RXRa 270nM:90nM, anti-RXR (NR concentration 270 nM, RXRa partner concentration 90 nM)
- Method Notes: PBM binding z-score (relative to random genomic background probes); higher = stronger binding; sequences stand for … in GC…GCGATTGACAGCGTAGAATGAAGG
Measurement Name: PBM binding z-score
Numbers only.

| Macromolecule Sequence | Test Value |
| --- | --- |
| CCTTACGGGTCACTGACAGGTTATAGCTTTTGGA | 4.21 |
| TAGACAGGGTCAAAGGCCAGAGTACGAATGTCGA | 6.93 |
| AGAACGAGGGCAATGAGCTGATAGCACGGGTGGC | 0.822 |
| ATATGTAGGTTAGCTGGGGTCACTCAGACTAGGC | 5.18 |
| AGATTGAGGTTATTAAGATCAGGGAATTGCGGTC | 1.65 |

// next entry
Request: Please give the measured PBM binding z-score for this sequence: `TGTTGTAGATCAAAGGTTAAGAAAGCCGAAGCCT`
Result: 7.88

----------
- System: PXR homodimer (NR concentration 270 nM)
- Method Notes: PBM binding z-score (relative to random genomic background probes); higher = stronger binding; sequences stand for … in GC…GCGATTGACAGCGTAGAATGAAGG
Output class 1 for PBM binding z-score not less than 0.6; output class 0 otherwise.

| Macromolecule Sequence | Tested Target | Assigned Class |
| --- | --- | --- |
| TATACAGGGTCAAAGGCCAGACTACGAATGTCGA | PXR homodimer (NR concentration 270 nM) | class 1 |
| ACTAGCAGGCCTAGGGTCACTCAAGATTAGTCCG | PXR homodimer (NR concentration 270 nM) | class 0 |
| CCTTACGGGTCACGAAGTTATAGCACGACGAGCG | PXR homodimer (NR concentration 270 nM) | class 0 |
| AATACAGCGTCACTAGGCCAGAGTAGGTACGAAT | PXR homodimer (NR concentration 270 nM) | class 0 |
| CGTCCAAGGTCAGAGCGGTCAGTGAATGCCGAGT | PXR homodimer (NR concentration 270 nM) | class 1 |
| GCGCCTGGGGCAAAGCAGGTTACCATAAGGTTGG | PXR homodimer (NR concentration 270 nM) | class 0 |

Now examine the next entry.
Request: API: above_or_equal(metric=PBM binding z-score, cutoff=0.6) for item `TCTAGTTGGTCAAAGGTCGCACACTCGAAATGCG`
Result: class 1

----------
- Tested on: RARg homodimer (NR concentration 270 nM)
- Method Notes: PBM binding z-score (relative to random genomic background probes); higher = stronger binding; sequences stand for … in GC…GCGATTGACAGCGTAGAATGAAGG
Give PBM binding z-score for every item shown.
Numbers only.

Give PBM binding z-score for each listed item.
1. CATAGAGGGTCAGCTAGGCCAGAGTAGGGACGGC
2. CCAGACAGGTGAGAAGGCAACTCAGCCTCGATTA
3. TCTTGTAGAACAATAGAGGTTAAGAAAGTGCGCT
4. CCTAGCAGGCCAGGGCCACTCAAGCATTTCGCTT
5. TGAATGAGGTAATAAGATCAGGGAACGTTGCAAA
6. CAAACTAGGTCACCGGAAGGTTAAAGTCCGCATG

Result:
1: 4.33; 2: 0.271; 3: 0.347; 4: -0.124; 5: 0.306; 6: 5.79

Give PBM binding z-score for each listed item.
1. GGAACGAGGGCAAGCTGATAGCAGAGTTTGATGG
2. AGTCAAAGTTCACTACGTAACGTAAGATTCAGCT
3. CCTTACGGGTCATGGTTATAGCACGGGTGGTACG
4. CATATAGGGTCAGCTAGGCCAGAGTAGGGACGGC
5. TCTTGTAGATCAATAGAGGTTAAGATAGTGCGCT
6. CTACCAAGGTGAACTAGGTCGTTGATTACTATTC

Result:
1.95
5.09
3.82
4.49
0.501
1.42

----------
Give PBM binding z-score for every item shown.
- Tested on: PPARg:RXRa 30nM:10nM, anti-RXR (NR concentration 30 nM, RXRa partner concentration 10 nM)
- Method Notes: PBM binding z-score (relative to random genomic background probes); higher = stronger binding; sequences stand for … in GC…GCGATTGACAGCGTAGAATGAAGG
One number for each entry.

Answered cases to consult:
| Macromolecule Sequence | Tested Target | Measurement Name | Test Value |
| --- | --- | --- | --- |
| CGAGACAGGTGAGAAGGTAACTCAGCCTCGATTA | PPARg:RXRa 30nM:10nM, anti-RXR (NR concentration 30 nM, RXRa partner concentration 10 nM) | PBM binding z-score | -0.196 |
| ATATGTAGGTTAGATGGGGTCATTCAGACTAGGC | PPARg:RXRa 30nM:10nM, anti-RXR (NR concentration 30 nM, RXRa partner concentration 10 nM) | PBM binding z-score | 2.6 |
| ACCAGTTGGTCAGCTGAGGTCACACACAATTCGG | PPARg:RXRa 30nM:10nM, anti-RXR (NR concentration 30 nM, RXRa partner concentration 10 nM) | PBM binding z-score | 0.389 |
| ATCTCTAGATAAAGTTCAGTGAAAGATCGATAGA | PPARg:RXRa 30nM:10nM, anti-RXR (NR concentration 30 nM, RXRa partner concentration 10 nM) | PBM binding z-score | 1.46 |

Give PBM binding z-score for each listed item.
1. CCTTACGGGTCACGAGATTATAGCACGACGAGCG
2. ATATGTAGGTTAGCTGGGGTCATTAAGACTAGGC
3. GATACAGGGTCAAGGCCAGAGTGCGCGTATTGAT
4. TCTTGTAGATCAATAGGGGTTAAGAAAGTGCGCT
5. GCTAGCAGGCCCTTTGGGTCACTCAATGACGGGC
6. TCTAGCAGGCCAGAGGGTCACTCAGGAGGTACGG

Result:
1: 2.99; 2: 2.49; 3: 2.09; 4: 2.94; 5: -0.568; 6: 2

----------
- Test system: LXRb homodimer (NR concentration 270 nM)
- Method Notes: PBM binding z-score (relative to random genomic background probes); higher = stronger binding; sequences stand for … in GC…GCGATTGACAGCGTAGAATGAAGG
Measurement Name: PBM binding z-score
Answers are plain numbers.

Answered cases to consult:
| Macromolecule Sequence | PBM binding z-score |
| --- | --- |
| AGTCAAAGTTCAGGACGAGGTATCGTAAAGCACG | -0.0231 |
| CCAAACAGGTGAGAAGGTAACTCAGCCTCGATTA | -0.392 |
| CGTCCAAGGTCATAGGAGGTCAGTGGAGACAGAT | 1.44 |
| CCTAGCAGGCCAATCTGGGTCACTCGAGGCTTGA | -1 |
| TCTTGTAGATCAGCAGGCTAAGAAAGCTGGCCAA | -0.933 |

Give PBM binding z-score for each listed item.
1. CGAACTAGGTCACGGACAGTGAATCTCCGCACGC
2. AGAATGAGGTTATTAAGATGAGGGAATTGCGGTC
3. ACAGACAGGTGATGAAGGAAACTCAGGCTATCAT
4. TAGCCTAGGTCATGCGGGCTAGTATAGTGTCGGC
5. ATCGAGAGGTCGACGAGGTGAGTATACACCGTTT
6. GCATATAGGTAATCCAAGGTGAAAGTCCGATTGT
7. CCTCGGAGGACAGAAGGTTAGAGCTGTCCGCTTT

Result:
1: -0.137; 2: 0.12; 3: -0.211; 4: -0.594; 5: -0.204; 6: -0.267; 7: -1.14

----------
- Tested on: RARa:RXR (NR concentration 270 nM, RXRa partner concentration 90 nM)
- Method Notes: PBM binding z-score (relative to random genomic background probes); higher = stronger binding; sequences stand for … in GC…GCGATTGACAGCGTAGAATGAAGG
Measurement Name: PBM binding z-score
Numbers only.

Answered cases to consult:
| Macromolecule Sequence | PBM binding z-score |
| --- | --- |
| ATTATTAGTTGACTTAGGGCAACCGATACGACGC | 0.95 |
| CCTTACGGGTCAAAGTTATAGCACGGGTGGTACG | 4.38 |
| CGTCCACGGTCAATGCTAGGTCAGTGAAAGCATT | 1.17 |
| CCTAGTTGGTAAAGGTCACACACGCTATAGGTAC | 6.31 |
| GTACCAAGGTGAGTAGGTCGTTGATGAGTAGGCG | 0.391 |
| ATCGAAAGGTCGTGAGGTGAGAATACAGAAAGGC | 4.19 |
| CATACAGGGTCAGCTAGGCCAGAGGAGGGACGGC | 3.04 |
| CCAGACAGGTGAAAGGTAATTCAGTCTGGTACGC | 1.49 |

Give PBM binding z-score for each listed item.
1. TTAATGAGGTTAAAGATCAGGGAACGTGGCGTCG
2. GATGCTAGGTCAACTGATGGTCAGCTAAAGCTCG

Result:
[3.61, 2.58]

Data origin, for the record: the supplement of paper PMC6555819
